- Experiment Description: Selectivity index ratio of IC50 for cytotoxicity against mouse RAW264.7 cells to MIC90 for antitubercular activity against Mycobacterium tuberculosis H37Rv
- Type: toxicity, cell-based
- Condition Parameters: read-out: Selectivity Index
List of selectivity ratio values.

Given Smiles	selectivity ratio
O=C(OCC#Cc1cnc2cc(Cl)ccc2n1)c1cccs1	1
CC(=O)OCC#Cc1cnc2cc(Cl)ccc2n1	1.22
CC(=O)OCC#Cc1cnc2cc([N+](=O)[O-])ccc2n1	7.3
O=CC#Cc1cnc2ccccc2n1	69.5
O=CC#Cc1cnc2cc(Cl)ccc2n1	4.1
O=C(OCC#Cc1cnc2ccccc2n1)c1ccccc1	3.4
O=C(OCC#Cc1cnc2ccccc2n1)c1cccs1	1.44
O=C(OCC#Cc1cnc2cc(Cl)ccc2n1)c1ccccc1	1.43
O=C(OCC#Cc1cnc2cc([N+](=O)[O-])ccc2n1)c1cccs1	7.24
CC(=O)OCC#Cc1cnc2ccccc2n1	2.64
OCC#Cc1cnc2cc(Cl)ccc2n1	2.22
OCC#Cc1cnc2ccccc2n1	0.83
CS(=O)(=O)OCC#Cc1cnc2ccccc2n1	5.7
O=[N+]([O-])c1ccc2nc(C#CCO)cnc2c1	7.3
CS(=O)(=O)OCC#Cc1cnc2cc([N+](=O)[O-])ccc2n1	8.5
O=C(OCC#Cc1cnc2cc([N+](=O)[O-])ccc2n1)c1ccccc1	2.6
